Biological target: T1, orthogonal hCD122 receptor (hoRb), hCD122 with H133D and Y134F (human, UniProt P14784 27-550)
T1 sequence: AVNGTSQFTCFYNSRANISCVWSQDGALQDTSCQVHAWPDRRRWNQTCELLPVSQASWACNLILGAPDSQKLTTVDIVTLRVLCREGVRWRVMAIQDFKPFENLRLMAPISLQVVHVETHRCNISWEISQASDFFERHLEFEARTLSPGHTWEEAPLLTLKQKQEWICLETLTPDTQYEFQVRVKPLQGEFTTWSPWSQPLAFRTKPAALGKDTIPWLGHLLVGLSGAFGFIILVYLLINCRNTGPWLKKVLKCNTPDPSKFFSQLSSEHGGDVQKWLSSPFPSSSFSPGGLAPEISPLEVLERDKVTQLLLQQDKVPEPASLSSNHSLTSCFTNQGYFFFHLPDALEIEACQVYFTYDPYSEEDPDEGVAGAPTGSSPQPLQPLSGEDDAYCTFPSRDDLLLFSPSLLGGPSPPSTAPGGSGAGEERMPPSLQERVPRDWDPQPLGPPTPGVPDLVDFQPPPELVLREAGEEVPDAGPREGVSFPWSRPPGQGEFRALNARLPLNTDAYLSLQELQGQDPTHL
Test: cell-based or functional assay
readout.name: NKL Ortho Proliferation Signal 1:2

# binder, data.value
measured = [
    ("L18S, SQVLKA (ligand) APTSSSTKKTQLQLSQLSVLLKAILNGINNYKNPKLTRMLTFKFYMPKKATELKHLQCLEEELKPLEEVLNLAQSKNFHLRPRDLISNINVIVLELKGSETTFMCEYADETATIVEFLNRWITFCQSIISTLT", 27200),
]

1: Q13W SQVLKA (ligand) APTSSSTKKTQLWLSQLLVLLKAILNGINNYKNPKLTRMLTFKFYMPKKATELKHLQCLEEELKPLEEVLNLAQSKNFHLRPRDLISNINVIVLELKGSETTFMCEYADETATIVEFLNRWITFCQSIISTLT
2: Q126I, SQVLKA (ligand) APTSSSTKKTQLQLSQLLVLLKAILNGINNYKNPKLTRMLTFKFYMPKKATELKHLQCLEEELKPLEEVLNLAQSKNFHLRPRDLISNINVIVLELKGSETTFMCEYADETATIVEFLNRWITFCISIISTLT
3: L18T, SQVLKA (ligand) APTSSSTKKTQLQLSQLTVLLKAILNGINNYKNPKLTRMLTFKFYMPKKATELKHLQCLEEELKPLEEVLNLAQSKNFHLRPRDLISNINVIVLELKGSETTFMCEYADETATIVEFLNRWITFCQSIISTLT
Task field, ranking: reported NKL Ortho Proliferation Signal 1:2, descending order. Thanks in advance for listing the labels in the requested order.
2, 3, 1
(2: 40000, 3: 25000, 1: 13700)
